tested on: mice of Kunming breed; experiment: Apomorphine induced clambering assay of mice; format: in vivo; settings: Mus musculus; mice, po; apomorphine 1 mg/kg sc 1 hour after administration; read-out: Apomorphine induced clambering (ED50, po, mg/kg)
readoutName: ED50 (mg/kg)
Give just the number in mg/kg; leave the unit off.

*Q* Request the reported ED50 associated with O=C(CCCN1CCC(c2noc3cc(F)ccc23)CC1)c1cc2c3c(c1)CCN3C(=O)CC2
*A* 0.12

*Q* Request the reported ED50 associated with O=C1Cc2cc(CCN3CCN(c4nsc5ccccc45)CC3)c(Cl)cc2N1
*A* 0.37

*Q* Request the reported ED50 associated with O=C1CCc2cc(CCCCN3CCC(c4noc5cc(F)ccc45)CC3)cc3c2N1CCC3
*A* 0.44

*Q* Request the reported ED50 associated with O=C(CCCN1CCC(O)(c2ccc(Cl)cc2)CC1)c1ccc(F)cc1
*A* 0.1

*Q* Request the reported ED50 associated with OCCOCCN1CCN(C2=Nc3ccccc3Sc3ccccc32)CC1
*A* 2.02

*Q* Request the reported ED50 associated with O=C(CCN1CCC(c2noc3cc(F)ccc23)CC1)c1cc2c3c(c1)CCC(=O)N3CCC2
*A* 0.11

*Q* Request the reported ED50 associated with O=C(CCCN1CCC(c2noc3cc(F)ccc23)CC1)c1cc2c3c(c1)CCC(=O)N3CCC2
*A* 1.31

*Q* Request the reported ED50 associated with O=C1CCc2ccc(OCCCCN3CCN(c4cccc(Cl)c4Cl)CC3)cc2N1
*A* 0.66

*Q* Request the reported ED50 associated with O=C(CCN1CCC(c2noc3cc(F)ccc23)CC1)c1cc2c3c(c1)CCN3C(=O)CC2
*A* 0.076

*Q* Request the reported ED50 associated with CN1CCN(C2=Nc3cc(Cl)ccc3Nc3ccccc32)CC1
*A* 17.9
